# measurementProtocol: in vitro
# setupConditions: human, liver microsomes
readoutName: CLint scaled at 1 μg/mL (mL/min/kg)
Give just the number in mL/min/kg; leave the unit off.

Exercise: Report measured CLint scaled at 1 μg/mL; entry is COc1ccc2c(c1)NC(=O)CN2c1nc(C)nc2c1CCC2 [Compound 5m]
Solution: 13

###

# measurementProtocol: Pharmacokinetic evaluation of 12k in mice
# Type: in vivo, NSG mice
# setupConditions: female, NSG, mouse, plasma, iv, 4 mg/kg, intravenous (4 mg/kg), NSG mice; read-out: t1/2 (converted)
readoutName: half-life
In your response, put the unit directly after the numeric value.

Exercise: Give the value of half-life reported for the following: CNc1nc2c(c(N3CC(=O)Nc4cc(OC)ccc43)n1)CCC2 [Compound 12k]
Solution: 3.97 h
